Values were extracted from patent US11123683B2.

protocol: pKa of amino group of the heterocyclic ring
Assay type: physicochemical
conditions: amino group in heterocyclic ring
Examples of compounds with documented pKa follow.

{"compound": "CN1CC(CO)NCC1=O (stereo not drawn) [5-hydroxymethyl-1-methyl-2-piperazinone]", "pKa": 6.6}
{"compound": "CC(=O)CN1CCNCC1", "pKa": 9.1}
{"compound": "O=C1CNCC(=O)N1", "pKa": 4.3}
